assay details: UWB1.289 ovarian carcinoma cell growth inhibition, synergistic combos for chromothripsis tumors, BGB or cisplatin combos (AID 1671456);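 note: cells exposed to compound for four days; 0% = vehicle DMSO and 100% = killing by high DMSO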
test parameters: UWB1.289 ovarian carcinoma cells, at 0.5 µM, active compounds read high
Measured inhibition values are reported for all entries that follow.
readout: inhibition (%)

1) N=c1ccn2c(n1)O[C@H]1[C@H](O)[C@@H](CO)O[C@H]12 : 1.85
2) CCn1nc(C(=O)O)c(=O)c2cc3c(cc21)OCO3 : -2.26
3) CN(N=O)C(=O)NC1C(O)OC(CO)C(O)C1O (stereo not given) : -9.59
4) O=c1[nH]c(=O)n([C@H]2C[C@H](O)[C@@H](CO)O2)cc1C(F)(F)F : -11.1
5) Nc1ncn([C@H]2C[C@H](O)[C@@H](CO)O2)c(=O)n1 : 16.5
6) COC1C(OC(N)=O)C(O)C(Oc2ccc3c(O)c(NC(=O)c4ccc(O)c(CC=C(C)C)c4)c(=O)oc3c2C)OC1(C)C (stereo not given) : -6.21
7) COc1c2ccoc2cc2oc(=O)ccc12 : -2.25
8) CCOC(=O)Nc1ccc(NCc2ccc(F)cc2)nc1N : 4.04
9) CC1(C(=O)O)CCC2(C)CCC3(C)C(=CC(=O)C4C5(C)CCC(OC(=O)CCC(=O)O)C(C)(C)C5CCC43C)C2C1 (stereo not given) : -3.45
10) CN1CCN(c2c(F)cc3c(=O)c(C(=O)O)cn(CCF)c3c2F)CC1 : 9.66

====

Entries and their inhibition
target desc: 6-phosphogluconate dehydrogenase, decarboxylating (Homo sapiens)
assay details: 6PGD enzyme inhibitors, primary screen, biochemical, human, recombinant enzyme, NADPH absorbance (AID 1159550)
test parameters: recombinant 6PGD, NADPH absorbance 341 nm; at 10 µM; active compounds read high
Peptide text beside a SMILES is read from it.
readout: inhibition (%)

1) Oc1cc(O)c2c(c1)O[C@H](c1cc(O)c(O)c(O)c1)[C@H](O)C2 : -13.7
2) CC(C(=O)O)c1ccc(N2Cc3ccccc3C2=O)cc1 (stereo unspecified) : -13
3) COc1ccc(-c2cc(=O)c3cc(OC)ccc3o2)cc1 : -2.36
4) C=CC(C)(O)CC/C=C(\C)CCC=C(C)C (stereo unspecified) : -3.52
5) CCN1CC2CCC(OC)C34C2C(O)C2(OCOC25CC(OC)C2CC3(O)C5C2OC)C14 (stereo unspecified) : 4.26
6) CC(=O)O[C@@H]1CC2C(C)(CC[C@H](O)C2(C)C)C2CC[C@]3(C)C(=CC(=O)O[C@H]3c3ccoc3)C21C (stereo partly specified) : 0.669
7) CC(C)=CCc1c2c(c3occ(-c4ccc(O)cc4)c(=O)c3c1O)C=CC(C)(C)O2 : 8.7
8) C=C1CCC(C2CC(=O)OC2=O)C(=O)CCC2C1CC2(C)C (stereo unspecified) : 13.1
9) CC(=O)N[C@@H](CC(=O)O)C(=O)N[C@@H](CCC(=O)O)C(=O)O (Ac-Asp-Glu-OH) : -7.58
10) C[C@H]1COc2c(N3CCN(C)CC3)c(F)cc3c(=O)c(C(=O)O)cn1c23 : 0.836
11) CC(=O)Oc1ccc(/C=C2\N=C(c3ccccc3)OC2=O)cc1 : 0.187
12) O=C(N[C@@H](Cc1ccccc1)C(=O)CCl)OCc1ccccc1 : 6.1
13) C=C1CCC2C(CC2(C)C)C(=O)CCC1O (stereo unspecified) : 28.4
14) COc1ccc(C(=O)CC(=O)O)c2c1C=CC(C)(C)O2 : 10.2
15) COS(C)(=O)=O : 6.76
16) CC(=O)O[C@@H]1CC2C(C)(C)C(=O)[C@@H]3O[C@@H]3[C@]2(C)C2CC[C@]3(C)C(=CC(=O)O[C@H]3c3ccoc3)[C@@]21C (stereo partly specified) : 0.52
17) CCOc1ccc(C(=O)c2ccc(OC)c(O)c2O)cc1 : -3.36
18) COc1cc(OC)c2c(=O)c(OC)c(-c3ccc(OC)c(OC)c3)oc2c1 : 1.73
19) O=C(CCCCCCCCCCCCC1CCCC1)Nc1ccc(S(=O)(=O)c2ccc(NC(=O)CCCCCCCCCCCCC3CCCC3)cc2)cc1 : 6.93
20) COc1ccc2c(c1)[C@@]1(C)CC[C@@H](O)C[C@@H]1CC2 : 13.3
21) CC(C)OC(=O)C(C)(C)Oc1ccc(C(=O)c2ccc(Cl)cc2)cc1 : 13.2

====

assay details: human astrocyte viability loss, single and combined drugs, cytotoxicity control for chromothriptic childhood tumor combination screen, cell-based, BGB or cisplatin IC20 combos (AID 1671460);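 note: cells exposed to compounds for 96 hours before viability readout; 0% = vehicle and 100% = killing control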
test parameters: Human astrocytes, drug combinations, at 0.5 µM, active compounds read high
Measured inhibition values are reported for all entries that follow.
readout: inhibition (%)

1) N=c1ccn2c(n1)O[C@H]1[C@H](O)[C@@H](CO)O[C@H]12 : 27.9
2) CN1CCN(c2c(F)cc3c(=O)c(C(=O)O)cn4c3c2OCN4C)CC1 : 6.55
3) O=c1[nH]c(=O)n([C@H]2C[C@H](O)[C@@H](CO)O2)cc1C(F)(F)F : -1.16
4) CN(N=O)C(=O)NC1C(O)OC(CO)C(O)C1O (stereo not given) : -2.34
5) CC1(C(=O)O)CCC2(C)CCC3(C)C(=CC(=O)C4C5(C)CCC(OC(=O)CCC(=O)O)C(C)(C)C5CCC43C)C2C1 (stereo not given) : -10.9

====

viability reference
assay details: ovarian cancer cell viability with rucaparib, profiling panel, oncology-focused library, rucaparib conditional (AID 1508598)
test parameters: patient-derived ovarian cancer cells, CellTiter-Glo viability, 144 h; at 0.0195 µM; OCI-P5x cells; without rucaparib; active compounds read low
readout: viability (%)

1. COc1c(C)c2c(c(O)c1C/C=C(\C)CCC(=O)O)C(=O)OC2 : 112
2. CNC(=O)c1cc(Oc2ccc(NC(=O)Nc3ccc(Cl)c(C(F)(F)F)c3)cc2)ccn1 : 101
3. C#Cc1cccc(Nc2ncnc3cc(OCCOC)c(OCCOC)cc23)c1 : 97.9
4. CCN(CC)CCNC(=O)c1c(C)[nH]c(/C=C2\C(=O)Nc3ccc(F)cc32)c1C : 95.9
5. CCc1ccc(CCOc2ccc(CC3SC(=O)NC3=O)cc2)nc1 (centres undefined) : 104
6. CC(C)C[C@H](NC(=O)[C@H](Cc1ccccc1)NC(=O)c1cnccn1)B(O)O : 1.5
7. COc1nc(N)nc2c1ncn2[C@@H]1O[C@H](CO)[C@@H](O)[C@@H]1O : 102
8. COc1cc2ncnc(Nc3ccc(F)c(Cl)c3)c2cc1OCCCN1CCOCC1 : 96.3
9. FC(F)c1nc2ccccc2n1-c1nc(N2CCOCC2)nc(N2CCOCC2)n1 : 90.9

====

assay details: HCT116 colon cancer cell growth inhibition, primary screen, CellTiter-Glo luminescence, NPC library (AID 1117342)
test parameters: at 20 µM (top of the series)
# inhibition of viability listing for each entry below
readout: inhibition of viability (%)

1. NC(=O)c1ncn([C@@H]2O[C@H](CO)[C@@H](O)[C@H]2O)c1N : -20.6
2. NC(N)=NCCC[C@H](N)C(=O)O : -16.4
3. Clc1cccc(C(c2ccc3nc[nH]c3c2)n2ccnc2)c1 (stereo not drawn) : 43.2
4. Cc1oc(=O)oc1CN1CCN(c2cc3c(cc2F)c(=O)c(C(=O)O)c2n3C(C)S2)CC1 (stereo not drawn) : 38.1
5. CN1C(CCl)Nc2cc(Cl)c(S(N)(=O)=O)cc2S1(=O)=O (stereo not drawn) : -10.4
6. CN(C)CCCOc1nn(Cc2ccccc2)c2ccccc12 : 46
7. Cc1cc(NS(=O)(=O)c2ccc(N)cc2)no1 : -6.5
8. CC(C)COC(=O)c1ccc(N)cc1 : 6.2
9. Cc1cc(CC(C)CC(C)(C)C)n(O)c(=O)c1 (stereo not drawn) : 67.2
10. C#C[C@]1(OC(C)=O)CC[C@H]2[C@@H]3CCC4=C[C@@H](OC(C)=O)CC[C@@H]4[C@H]3CC[C@@]21C : 45
11. CCN(CC)C(=O)Nc1ccc(OCC(O)CNC(C)(C)C)c(C(C)=O)c1 (stereo not drawn) : 12
12. CCN(CC)CCNC(C(=O)OCCC(C)C)c1ccccc1 (stereo not drawn) : 0.2
13. O=C(NCC(O)CO)c1c(I)c(C(=O)NCC(O)CO)c(I)c(N(CCO)C(=O)CO)c1I (stereo not drawn) : 50.9
14. CCCCCCCCCCCCCCCCCCCCCCO : -36.7
15. C(=C\c1ccccc1)/CN1CCN(C(c2ccccc2)c2ccccc2)CC1 : 84.4
16. OCCN1CCN(CCCN2c3ccccc3C=Cc3ccccc32)CC1 : 56.9
17. C[C@H](O)C(=O)Nc1c(I)c(C(=O)NC(CO)CO)c(I)c(C(=O)NC(CO)CO)c1I : -1.3
18. O=C1c2ccccc2S(=O)(=O)N1CCCCN1CCN(c2ncccn2)CC1 : 7.2
19. O=C(O)C(S)C(S)C(=O)O (stereo not drawn) : -11.3
20. C[C@]12CC[C@H]3[C@@H](CCC4=CC(=O)CC[C@@]43C)[C@@H]1CC[C@@H]2C(=O)CO : 27.8
21. CC(C)(C)C(=O)C(Oc1ccc(Cl)cc1)n1ccnc1 (stereo not drawn) : 34.8
22. CO/N=C(\C(=O)N[C@@H]1C(=O)N2C(C(=O)O)=C(CSc3nc(=O)c(O)nn3C)CS[C@H]12)c1csc(N)n1 : -9.17
23. CC(C(=O)O)c1cccc(C(=O)c2ccccc2)c1 (stereo not drawn) : 1.73

These data points were gathered from PubChem BioAssay.
